B1: ZNF232 (parent)
chain: HSGEKPFICKECGKAYGWCSELIR

variants of: B1; experiment: protein stability index of a GFP-peptide fusion (GPS, HEK-293T) (PSI 1-6); higher = more stable; details: c terminus: a fixed tail appended;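 note: lentivirally expressed fusions sorted by FACS into six bins by GFP to DsRed ratio, PSI derived from sequencing read proportions per bin multiplied by bin number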
Assay Readout: protein stability index

In [3]: df
Out[3]:
    var  result
0  S20C    2.96
1  E11F    1.77
2   S2H    1.91
3   I8S    2.28

For this variant ( C12R ), measured protein stability index is 1.79

Lookup result for W18L ; measured protein stability index: 2.09

Short answer for E21V : protein stability index was 2.84

Form: variant = G17N ; protein stability index = 1.38

So for K10C , the logged protein stability index turned out to be 1.7

For this variant ( H1F ), measured protein stability index is 2.76

The variant S2V showed protein stability index equal to 1.84

G17E has a reported protein stability index of 1.82

The value of protein stability index measured for the variant K10H turned out to be 1.75

Entry G13V ; protein stability index = 2.39

The variant listed as C19Q has a reported protein stability index of 2.39

Value of measured protein stability index for the entry H1G : 2.55

The variant listed as G3S shows protein stability index equal to 2.14
